# reported pIC50; entries follow
# Target Or System: BRD9 bromodomain (Flag-BRD9 P133-K239; Swiss Prot Q9H8M2) (Homo sapiens, UniProt Q9H8M2)
# Construct: His-Flag-BRD9 (P133-K239); Swiss Prot Q9H8M2; His6 with TEV site (mgsshhhhhhenlyfq/) (N, cleaved yes)
# Run Description: BRD9 Bromodomain TR-FRET Competition Binding Assay
# Condition Description: competition with biotinylated BRD9 ligand; 90 minutes at room temperature
pIC50: −log10 of the molar value.

Molecule: COc1cc(-c2cn(C)c(=O)c3cc(NCCOCCOCCNc4cccc5c4C(=O)N(C4CCC(=O)NC4=O)C5=O)ncc23)cc(OC)c1CN(C)C (stereo not shown)
pIC50: ≤ 8.00
--
Molecule: CNc1cc2c(=O)n(C)cc(-c3cc(OC)c(CN4CCC5(CC4)CN(C(=O)CCCCOc4cccc6c4C(=O)N(C4CCC(=O)NC4=O)C6=O)CCO5)c(OC)c3)c2cn1 (stereo not shown)
pIC50: > 8.00
--
Molecule: COc1cc(-c2cn(C)c(=O)c3cnc(N(C)C)cc23)cc(OC)c1CN1CCC2(CC1)CN(C(=O)CCCOc1cccc3c1C(=O)N(C1CCC(=O)NC1=O)C3=O)CCO2 (stereo not shown)
pIC50: > 8.00
--
Molecule: CNc1cc2c(=O)n(C)cc(-c3cc(OC)c(CN4CCC5(CC4)CN(C(=O)CCCOc4cccc6c4C(=O)N(C4CCC(=O)NC4=O)C6=O)CCO5)c(OC)c3)c2cn1 (stereo not shown)
pIC50: > 8.00
--
Molecule: COc1cc(-c2cn(C)c(=O)c3cc(NC(=O)CCOCCOCCNc4ccc5c(c4)C(=O)N(C4CCC(=O)NC4=O)C5=O)ncc23)cc(OC)c1CN(C)C (stereo not shown)
pIC50: ≤ 7.00
--
Molecule: COc1cc(-c2cn(C)c(=O)c3cc(NC(=O)CCOCCOCCNc4cccc5c4C(=O)N(C4CCC(=O)NC4=O)C5=O)ncc23)cc(OC)c1CN(C)C (stereo not shown)
pIC50: ≤ 7.00
--
Molecule: COc1cc(-c2cn(C)c(=O)c3cnc(N(C)C)cc23)cc(OC)c1CN1CC(S(=O)(=O)NCCN2CCN(c3ccc4c(c3)C(=O)N(C3CCC(=O)NC3=O)C4=O)CC2)C1 (stereo not shown)
pIC50: > 8.00
--
Molecule: COc1cc(-c2cn(C)c(=O)c3cc(N(C)CC(=O)NCCCCCOc4cccc5c4C(=O)N(C4CCC(=O)NC4=O)C5=O)ncc23)cc(OC)c1CN(C)C (stereo not shown)
pIC50: > 8.00
--
Molecule: COc1cc(-c2cn(C)c(=O)c3cnc(N(C)C)cc23)cc(OC)c1CN(C)CCOCCN1CCN(c2ccc3c(c2)C(=O)N(C2CCC(=O)NC2=O)C3=O)CC1 (stereo not shown)
pIC50: > 8.00
--
Molecule: COc1cc(-c2cn(C)c(=O)c3cnc(NCCCCCOc4cccc5c4C(=O)N(C4CCC(=O)NC4=O)C5=O)cc23)c(OC)cc1CN(C)C (stereo not shown)
pIC50: ≤ 8.00
--
Molecule: CNc1cc2c(=O)n(C)cc(-c3cc(OC)c(CN4CCC(CCN5CCN(c6ccc7c(c6)C(=O)N(C6CCC(=O)NC6=O)C7=O)CC5)CC4)c(OC)c3)c2cn1 (stereo not shown)
pIC50: > 8.00
--
Molecule: COc1cc(-c2cn(C)c(=O)c3cnc(N(C)CCOCCOCCNc4ccc5c(c4)C(=O)N(C4CCC(=O)NC4=O)C5=O)cc23)cc(OC)c1CN(C)C (stereo not shown)
pIC50: ≤ 8.00
--
Molecule: COc1cc(-c2cn(C)c(=O)c3cc(NCC(=O)N(C)C)ncc23)cc(OC)c1CN(C)C
pIC50: ≤ 8.00
--
Molecule: COc1cc(-c2cn(C)c(=O)c3cc(NCCCCCCCCNC(=O)COc4cccc5c4C(=O)N(C4CCC(=O)NC4=O)C5=O)ncc23)cc(OC)c1CN(C)C (stereo not shown)
pIC50: ≤ 8.00
--
Molecule: CNc1cc2c(=O)n(C)cc(-c3cc(OC)c(CN(C)C)c(OC)c3)c2cn1
pIC50: ≤ 8.00
--
Molecule: COc1cc(-c2cn(C)c(=O)c3cnc(NC(=O)CCOCCOCCNc4cccc5c4C(=O)N(C4CCC(=O)NC4=O)C5=O)cc23)cc(OC)c1CN(C)C (stereo not shown)
pIC50: ≤ 8.00
--
Molecule: COc1cc(-c2cn(C)c(=O)c3cc(N)ncc23)cc(OC)c1CN(C)C
pIC50: ≤ 8.00
--
Molecule: COc1cc(-c2cn(C)c(=O)c3cnc(N)cc23)cc(OC)c1CN(C)C
pIC50: ≤ 8.00
--
Molecule: CNc1cc2c(=O)n(C)cc(-c3cc(OC)c(CN4CC(C(=O)NCCCCCOc5cccc6c5C(=O)N(C5CCC(=O)NC5=O)C6=O)C4)c(OC)c3)c2cn1 (stereo not shown)
pIC50: > 8.00
--
Molecule: COc1cc(-c2cn(C)c(=O)c3cnc(N(C)C)cc23)cc(OC)c1CN1CCC2(CC1)CN(C(=O)CCCCOc1ccc3c(c1)C(=O)N(C1CCC(=O)NC1=O)C3=O)CCO2 (stereo not shown)
pIC50: > 8.00
--
Molecule: COc1cc(-c2cn(C)c(=O)c3cc(NCC(=O)NCCCCCOc4cccc5c4C(=O)N(C4CCC(=O)NC4=O)C5=O)ncc23)cc(OC)c1CN(C)C (stereo not shown)
pIC50: ≤ 8.00
--
Molecule: COc1cc(-c2cn(C)c(=O)c3cnc(N(C)C)cc23)cc(OC)c1CN1CC(N(C)Cc2cccc3c2C(=O)N(C2CCC(=O)NC2=O)C3=O)C1 (stereo not shown)
pIC50: > 8.00

====

# Target Or System: Nanoluciferase-BRD9 fusion protein (3×FLAG-NLuc-BRD9) in SYO-1 cells (Homo sapiens, UniProt Q9H8M2)
# Construct: expressed in transfected cells; host or cells: SYO-1
# Sequence (Q9H8M2 whole entry, the tested form may be a part): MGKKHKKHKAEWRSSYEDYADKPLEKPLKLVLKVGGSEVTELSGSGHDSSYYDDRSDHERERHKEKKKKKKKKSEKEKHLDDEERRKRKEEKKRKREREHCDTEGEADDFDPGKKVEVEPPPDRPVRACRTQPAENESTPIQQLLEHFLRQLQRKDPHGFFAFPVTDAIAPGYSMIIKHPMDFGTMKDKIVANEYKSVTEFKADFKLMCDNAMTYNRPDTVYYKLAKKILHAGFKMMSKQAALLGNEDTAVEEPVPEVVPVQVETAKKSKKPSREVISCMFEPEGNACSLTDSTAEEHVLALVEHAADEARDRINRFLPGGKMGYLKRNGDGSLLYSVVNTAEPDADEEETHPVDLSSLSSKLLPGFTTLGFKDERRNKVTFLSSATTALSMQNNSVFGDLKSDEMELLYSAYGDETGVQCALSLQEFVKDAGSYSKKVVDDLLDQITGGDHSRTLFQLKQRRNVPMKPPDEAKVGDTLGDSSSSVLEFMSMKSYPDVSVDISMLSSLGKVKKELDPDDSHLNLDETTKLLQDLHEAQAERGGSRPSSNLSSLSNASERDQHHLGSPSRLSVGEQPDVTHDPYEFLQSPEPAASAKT
# Run Description: SYO1 BRD9 NanoLuc Degradation Assay
# Assay type: cell-based
# Condition Description: Table 6B; SYO-1 cells expressing 3×FLAG-NLuc-BRD9, 6 hours incubation, 1 μM top dose; read-out: SYO1 BRD9-NanoLuc degradation IC50
# reported DC50; entries follow
Measurement Type: DC50

Compound: COc1cc(-c2cn(C)c(=O)c3cnc(N(C)C)cc23)cc(OC)c1CN1CCN(c2ccc3c(c2)C(=O)N(C2CCC(=O)NC2=O)C3=O)CC1 (stereo not drawn)
Measurement Type: DC50
Meas Value: < 10 nM
//
Compound: COc1cc(-c2cn(C)c(=O)c3cnc(N4CCC4)cc23)cc(OC)c1CN1CC(CN2CCC3(CC2)CN(c2ccc4c(c2)CN(C2CCC(=O)NC2=O)C4=O)C3)C1 (stereo not drawn)
Measurement Type: DC50
Meas Value: < 10 nM
//
Compound: COc1cc(-c2cn(C)c(=O)c3cnc(N(C)C)cc23)cc(OC)c1CN1CCC(C(N2CCC3(CC2)CC(Oc2ccc4c(c2)C(=O)N(C2CCC(=O)NC2=O)C4=O)C3)C(F)(F)F)CC1 (stereo not drawn)
Measurement Type: DC50
Meas Value: < 10 nM
//
Compound: COc1cc(-c2cn(C)c(=O)c3cnc(N(C)C)cc23)cc(OC)c1CN1CCN([C@H](C)COc2ccc3c(c2)C(=O)N(C2CCC(=O)NC2=O)C3=O)CC1 (stereo partly drawn)
Measurement Type: DC50
Meas Value: < 10 nM
//
Compound: COc1cc(-c2cn(C)c(=O)c3cnc(N(C)C)cc23)cc(OC)c1CN1CCN(C2CCN(c3ccc4c(c3)C(=O)N(C3CCC(=O)NC3=O)C4=O)CC2)CC1 (stereo not drawn)
Measurement Type: DC50
Meas Value: < 10 nM
//
Compound: CCn1cc(-c2cc(OC)c(CN3CCC(N4CCN(c5ccc6c(c5)CN(C5CCC(=O)NC5=O)C6=O)CC4)CC3)c(OC)c2)c2cc(N3CCC3)ncc2c1=O (stereo not drawn)
Measurement Type: DC50
Meas Value: < 10 nM
//
Compound: COc1cc(-c2cn(C)c(=O)c3cnc(N(C)C)cc23)cc(OC)c1CN1CCC(CCCN2CCN(C3CCC(=O)NC3=O)C(=O)C2)CC1 (stereo not drawn)
Measurement Type: DC50
Meas Value: 10 to 100 nM
//
Compound: CNc1cc2c(-c3cc(OC)c(CN4CCN(CCC5CCN(c6ccc7c(c6)C(=O)N(C6CCC(=O)NC6=O)C7=O)CC5)CC4)c(OC)c3)cn(C)c(=O)c2cn1 (stereo not drawn)
Measurement Type: DC50
Meas Value: < 10 nM
//
Compound: COc1cc(-c2cn(C)c(=O)c3cnc(N4CCC4)cc23)cc(OC)c1CN1CCC(C(=O)N2CCC3(CC2)CC(Oc2ccc4c(c2)C(=O)N(C2CCC(=O)NC2=O)C4=O)C3)CC1 (stereo not drawn)
Measurement Type: DC50
Meas Value: < 10 nM
//
Compound: COc1cc(-c2cn(C)c(=O)c3cnc(N4CCC4)cc23)cc(OC)c1CN1CC(N2CCC(c3ccc4c(c3)CN(C3CCC(=O)NC3=O)C4=O)CC2)C1 (stereo not drawn)
Measurement Type: DC50
Meas Value: < 10 nM
//
Compound: COc1cc(-c2cn(C)c(=O)c3cnc(N(C)C)cc23)cc(OC)c1CN1CCC2(CC1)CCN(CC#Cc1ccc3c(c1)C(=O)N(C1CCC(=O)NC1=O)C3=O)C2 (stereo not drawn)
Measurement Type: DC50
Meas Value: < 10 nM
//
Compound: COc1cc(-c2cn(C)c(=O)c3cnc(N(C)C)cc23)cc(OC)c1CN1CCN(CC(C)(C)Oc2ccc3c(c2)C(=O)N(C2CCC(=O)NC2=O)C3=O)CC1 (stereo not drawn)
Measurement Type: DC50
Meas Value: < 10 nM
//
Compound: CCc1cc(-c2cn(C)c(=O)c3cnc(N(C)C)cc23)cc(Cl)c1CN1CCC(CN2CCC3(CC2)CC(Oc2ccc4c(c2)C(=O)N(C2CCC(=O)NC2=O)C4=O)C3)CC1 (stereo not drawn)
Measurement Type: DC50
Meas Value: < 10 nM
//
Compound: COc1cc(-c2cn(C)c(=O)c3cnc(N4CCOCC4)cc23)cc(OC)c1CN1CC(Oc2ccn3c(=O)n(C4CCC(=O)NC4=O)nc3c2)C1 (stereo not drawn)
Measurement Type: DC50
Meas Value: < 10 nM
//
Compound: COc1cc(-c2cn(C)c(=O)c3cnc(N(C)C)cc23)cc(OC)c1CN1CC2CN(C(=O)CCOCCOc3ccc4c(c3)C(=O)N(C3CCC(=O)NC3=O)C4=O)CCC21 (stereo not drawn)
Measurement Type: DC50
Meas Value: < 10 nM
//
Compound: COc1cc(-c2cn(C)c(=O)c3cnc(N(C)C)cc23)cc(OC)c1CN1CCN(C[C@H](C)Oc2ccc3c(c2)C(=O)N(C2CCC(=O)NC2=O)C3=O)CC1 (stereo partly drawn)
Measurement Type: DC50
Meas Value: < 10 nM
//
Compound: COc1cc(-c2cn(C)c(=O)c3ccc(N4CCC4)cc23)cc(OC)c1CN1CCC(N2CCN(c3ccc4c(c3)CN(C3CCC(=O)NC3=O)C4=O)CC2)CC1 (stereo not drawn)
Measurement Type: DC50
Meas Value: < 10 nM
//
Compound: COc1cc(-c2cn(C)c(=O)c3cnc(N(C)C)cc23)cc(OC)c1CN1CCC(CN2CCC3(CC2)CC(Oc2ccc4c(c2)C(=O)N(C2CCC(=O)NC2=O)C4=O)C3)C(OC)C1 (stereo not drawn)
Measurement Type: DC50
Meas Value: < 10 nM
//
Compound: COc1cc(-c2cn(C)c(=O)c3cnc(N(C)C)cc23)cc(OC)c1CN1CCC(CCNC(=O)NCc2ccc3c(c2)C(=O)N(C2CCC(=O)NC2=O)C3=O)CC1 (stereo not drawn)
Measurement Type: DC50
Meas Value: 10 to 100 nM
//
Compound: COc1cc(-c2cn(C)c(=O)c3cnc(N(C)C)cc23)cc(OC)c1CN1CCC2(CC1)CN(c1ccc3c(c1)C(=O)N(C1CCC(=O)NC1=O)C3=O)C2 (stereo not drawn)
Measurement Type: DC50
Meas Value: < 10 nM
//
Compound: COc1cc(-c2cn(C)c(=O)c3cnc(N(C)C)cc23)cc(OC)c1CN1CCC(CN2CCN(c3ccc4c(c3)C(=O)N(C3CCC(=O)NC3=O)C4=O)CC2)CC1 (stereo not drawn)
Measurement Type: DC50
Meas Value: < 10 nM
